- Tested on: OVCAR-3
- protocol: NCI tumour cell line growth inhibition, 48 h
The source made the active and inactive calls. No stated cut-off is given here; in the data, active = GI50 up to about 1.1 µM and inactive = higher.
Recorded GI50 for the following molecules

# molecule, GI50
measured = [
    ("COc1ccc(/C=C/c2cnc3ccccc3n2)cc1OC", "93.1 µM (inactive)"),
    ("N[C@]1(C(=O)O)C[C@@H]2C(Br)=NO[C@@H]2C1", "> 100 µM (inactive)"),
    ("N#C/C(=C\\c1ccc2ccccc2c1)c1ccccc1", "13 µM (inactive)"),
    ("Cc1cc(N(CCC#N)CCC#N)ccc1/C=C1\\N=C(c2cc([N+](=O)[O-])ccc2Cl)N(NC(=O)c2ccc(/N=C\\c3ccc(N(CCC#N)S(C)(=O)=O)cc3C)cc2)C1=O", "> 100 µM (inactive)"),
    ("Clc1cc(Cl)cc(C2SCc3nc4ccccc4n32)c1 (configuration not stated)", "16.9 µM (inactive)"),
    ("O=c1/c(=C\\c2ccccc2)sc2n1C(c1ccccc1)C1(O)CCCCC1N=2 (configuration not stated)", "> 100 µM (inactive)"),
    ("O=C(O)C(=C\\c1ccc2c(c1)OCO2)/C(=C/c1ccc2c(c1)OCO2)C(=O)O", "> 100 µM (inactive)"),
    ("CCCOc1ccc(/C=C/c2cc(OC)c(OC)c(OC)c2)cc1", "0.146 µM (active)"),
    ("CC(C)(C)c1ccc(OCC(=O)O)c(Cl)c1", "60.4 µM (inactive)"),
    ("COC(=O)C1=Cc2cc(OC)c(OC)cc2[C@H](c2ccc(OC)c(OC)c2)C1C(=O)OC (some centres not stated)", "> 100 µM (inactive)"),
    ("CN1C2CCC1C(C(O)c1ccccc1[N+](=O)[O-])C(=O)C2 (configuration not stated)", "34.7 µM (inactive)"),
    ("OC1C2CCC3C2CC(C(O)(c2ccccc2)c2ccccc2)C13 (configuration not stated)", "29.9 µM (inactive)"),
    ("O=C(CCCN1CCC(C(O)c2ccc(F)cc2)CC1)c1ccc(F)cc1 (configuration not stated)", "57 µM (inactive)"),
    ("CC1OC1C(=O)P(=O)(O)O (configuration not stated)", "> 100 µM (inactive)"),
    ("COc1ccc(/C=C2\\NC(=S)N(/C=C3\\C(=O)Oc4ccccc4C3=O)C2=O)cc1OC", "87.3 µM (inactive)"),
    ("CN(N=O)N1C(=O)SCC(c2ccccc2)(c2ccccc2)C1=O", "37.6 µM (inactive)"),
    ("O=C(NC1CCCCC1)NC12CC3CC(CC(F)(C3)C1)C2", "> 100 µM (inactive)"),
    ("COc1cccc(CCCNC(=O)Cc2cc(OC)c(OC)cc2CO)c1", "> 100 µM (inactive)"),
    ("CCOC(=O)C(=O)Nc1ccc([N+](=O)[O-])cc1C#N", "> 100 µM (inactive)"),
    ("CC1(C)O/C(=C\\c2ccccc2)C(=O)/C(=C/c2ccccc2)O1", "27.1 µM (inactive)"),
    ("Cc1ccc2[nH]c3c4c5ccccc5nc-4c[nH]c3c2c1", "10 µM (inactive)"),
    ("C=C(CCOC)CCC1CCCCC/C1=N\\N(C)C (configuration not stated)", "> 100 µM (inactive)"),
]
